Target: human cloned CHRM4 receptor (M4_CHO cells) (Homo sapiens, UniProt P08173)
Construct: expressed in transfected cells; host or cells: CHO-K1
Sequence (P08173 1-479): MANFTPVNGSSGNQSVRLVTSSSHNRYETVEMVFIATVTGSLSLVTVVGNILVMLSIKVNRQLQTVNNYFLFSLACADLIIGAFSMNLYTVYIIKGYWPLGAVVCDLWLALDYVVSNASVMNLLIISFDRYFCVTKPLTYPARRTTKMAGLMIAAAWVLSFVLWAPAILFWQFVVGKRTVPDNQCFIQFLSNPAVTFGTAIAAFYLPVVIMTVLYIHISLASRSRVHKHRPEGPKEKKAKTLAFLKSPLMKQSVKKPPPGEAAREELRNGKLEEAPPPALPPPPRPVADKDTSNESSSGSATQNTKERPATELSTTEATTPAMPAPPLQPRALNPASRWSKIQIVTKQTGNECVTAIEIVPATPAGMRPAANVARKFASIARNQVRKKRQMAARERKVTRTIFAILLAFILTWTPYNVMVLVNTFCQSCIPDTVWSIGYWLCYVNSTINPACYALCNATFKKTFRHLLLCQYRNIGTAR
Test: CHRM4 Ca++ Flux Assay (agonist mode, FDSS 7000EX)
Format: cell-based
Details: geometric mean if tested more than once, read-out: M4 FDSS EC50
assay.endpoint: pEC50
One number for each entry, as −log10 of the molar value.

// solved cases for pEC50 follow
Fc1cncc(N2CC3(CC[C@@H](N4CCC(c5cc(F)ccc5OC5CCOCC5)CC4)C3)C2)c1 (single isomer, unassigned) [Example 10A]    8.30
c1ccc(C2CCN([C@H]3CCC4(C3)CN(c3nnco3)C4)CC2)c(C2CCOCC2)c1 (single isomer, unassigned) [Example 10T]    6.77

Record request: pEC50 value, item Fc1ccc(OC2CCOCC2)c(C2CCN([C@@H]3CCC4(C3)CN(c3cncnc3)C4)CC2)c1 (single isomer, unassigned) [Example 10G]
8.30
